From: PubChem BioAssay AID1508612

Assay: passive permeability, PAMPA, ADME assay (AID 1508612)
Details: pH 7.4, 30.0 min, 50.0 µM
Experimental Readout: Papp (×10⁻⁶ cm/s)

INSERT INTO measurements (molecule, numeric_result) VALUES
  ('COc1ccc(-n2nc(C3CCCN(C(=O)Cc4ccccn4)C3)[nH]c2=O)cc1 (stereo unspecified)', 106),
  ('Cc1cc(C)c(C(=O)Nc2cccc([S+](=O)([O-])Nc3ccc(Br)cc3)c2)[nH]1', 737),
  ('CSc1ccc(-c2cnc(N3CCC(C(N)=O)CC3)s2)cc1', 58.9),
  ('c1ccc(C2=Nn3c(nnc3-c3ccncc3)SC2)cc1', 195),
  ('COc1ccc(-c2nc3ncccc3[nH]2)cc1', 139),
  ('CN(C)C(=O)c1ccc(-c2cc[nH]c(=O)c2N)cc1', 12.1);

###

Experiment: passive permeability, PAMPA, ADME assay (AID 1508612)
Settings: pH 7.4, 30.0 min, 50.0 µM
Experimental Readout: Papp (×10⁻⁶ cm/s)

INSERT INTO assay_data (compound, op, numeric_result) VALUES
  ('O=C(c1ccco1)N1CCN(c2nc(-c3ccc(Br)cc3)cs2)CC1', '=', 4.09),
  ('CCOc1ccc(CNc2ccc3c(c2)ncn3C)cc1', '>', 1000),
  ('COC(=O)c1cc(Cl)ccc1NC(=O)CSc1ncc(S(=O)(=O)c2ccc(Br)cc2)c(=O)[nH]1', '=', 68.7),
  ('Cc1nn2c(c1-c1ccccc1-c1ccccc1)N(Cc1ccc(C(=O)O)s1)CCC2', '=', 109),
  ('Brc1ccc(-c2csc(N3CCOCC3)n2)cc1', '<', 1),
  ('O=C(C1CC(=O)N(c2n[nH]c3ccccc23)C1)N1CCC(c2noc3cc(F)ccc23)CC1 (stereo not given)', '=', 726),
  ('NC(=O)C1CCN(c2nc(-c3ccccc3C(F)(F)F)cs2)CC1', '=', 544),
  ('Cc1ccc(-c2[nH]n3c(=O)c4c(nc3c2C)CCCC4)cc1', '=', 506),
  ('C=Cc1ccc(C(=O)N2CCCC(CCC(=O)N3CCN(c4ccccn4)CC3)C2)cc1 (stereo not given)', '=', 421),
  ('Cc1cc(N)c2cc(NC(=O)Nc3ccc4nc(C)cc(N)c4c3)ccc2n1', '<', 1);

###

Experiment: passive permeability, PAMPA, ADME assay (AID 1508612)
Conditions: pH 7.4, 30.0 min, 50.0 µM
Where Papp equals or exceeds 400 ×10⁻⁶ cm/s, the correct label is t; where it does not, the label is f.

INSERT INTO results (compound, class) VALUES
  ('COc1ccc(NC(=O)C2=C(C)NC(Nc3nc4ccccc4o3)=NC2c2ccccc2Br)cc1 (stereo unspecified)', 'f'),
  ('O=C1Nc2ccccc2/C1=C/c1cccc(C(=O)O)c1', 'f'),
  ('CC(=O)Nc1nc(C)c(-c2ccc(Cl)c(S(=O)(=O)NCCO)c2)s1', 'f'),
  ('Nc1ncnc2c1c(-c1cnc3[nH]ccc3c1)nn2C1CCCC1', 't'),
  ('CC(=O)c1c(C)[nH]c(C(=O)Nc2cccc(S(=O)(=O)N3CCCCC3)c2)c1C', 't'),
  ('COc1cc(/C=C(\C#N)C(=O)c2ccc(O)c(O)c2)cc(I)c1O', 'f'),
  ('Fc1ccc(Nc2nccc(-c3ccncc3)n2)cc1F', 't'),
  ('Cc1c(-c2cccc3c(CCCOc4cccc5ccccc45)c(C(=O)O)n(Cc4cccnc4)c23)c(COc2ccc(N3CCN([S+](=O)([O-])N(C)C)CC3)cc2)nn1C', 'f'),
  ('O=C(NCC1Cn2cccc2CN1Cc1cccnc1)Nc1ccccc1 (stereo unspecified)', 'f'),
  ('O=C1CCc2ccc(OCCCCN3CCN(c4cccc(Cl)c4Cl)CC3)cc2N1', 't'),
  ('COc1cc(-c2c(C#N)c(N)nc3c2c(C)nn3-c2ccc(F)cc2)ccc1O', 't'),
  ('CN1CCN(C2=Nc3cc(Cl)ccc3Nc3ccccc32)CC1', 't'),
  ('N#Cc1nc(-c2cccc3ccccc23)oc1NCc1ccccc1', 'f'),
  ('Cc1ccc(-c2csc(N3CCC(C(N)=O)CC3)n2)cc1', 't'),
  ('O=C(Nc1cn[nH]c1-c1nc2ccc(CN3CCOCC3)cc2[nH]1)NC1CC1', 'f'),
  ('NC(=O)N1CCN(c2nc(-c3ccc(Br)cc3)cs2)CC1', 't'),
  ('Cc1ccccc1C(=O)N1CCc2cc(-c3csc(NC(=O)Cc4ccc5c(c4)OCO5)n3)ccc21', 't'),
  ('CCN1C(=O)c2ccccc2S(=O)c2ccc(C(=O)NCc3ccc(OC)cc3)cc21 (stereo unspecified)', 't'),
  ('CCCS(=O)(=O)c1nc(NC2CC2)cc(-c2ccc3c(ccn3C3CC(C)(C)NC(C)(C)C3)c2)n1', 'f'),
  ('O=C(NCCc1ccccn1)C1CC(=O)N(c2n[nH]c3cc(Br)ccc23)C1 (stereo unspecified)', 'f');

###

Recorded Papp values for a group of compounds are listed next.
Assay: passive permeability, PAMPA, ADME assay (AID 1508612)
Details: pH 7.4, 30.0 min, 50.0 µM
Experimental Readout: Papp (×10⁻⁶ cm/s)

INSERT INTO measurements (compound, experimental_readout, op, numeric_result) VALUES
  ('COc1ccccc1N1CCN(CCN(C(=O)c2ccc(I)cc2)c2ccccn2)CC1', 'Papp', '>', 1000),
  ('COc1ccc(NC(=O)c2[nH]c(C)c(C(C)=O)c2C)cc1S(=O)(=O)Nc1cccc(C#N)c1', 'Papp', '=', 30.9),
  ('Cc1ccc(S(=O)(=O)Nc2cnccc2C(=O)Nc2nc(-c3ccncc3)cs2)cc1', 'Papp', '=', 74.4),
  ('CC1=C(C(=O)Nc2ccccc2)C(c2ccc[nH]2)n2ncnc2N1 (centres undefined)', 'Papp', '=', 80),
  ('Cc1ccc(S(=O)(=O)Nc2cnccc2C(=O)Nc2nc(-c3ccc(-c4ccccc4)cc3)cs2)cc1', 'Papp', '=', 5.92),
  ('CCOC(=O)N1CCc2c(sc(NCc3sccc3C)c2C(=O)Nc2cc(Cl)ccc2OC)C1', 'Papp', '<', 1),
  ('Cc1ccc(CNCc2cn[nH]c2-c2ccc(C)cc2)cc1', 'Papp', '>', 1000),
  ('O=C(O)CCNc1cc(N2CCc3ccccc3CC2)nc(-c2ccccn2)n1', 'Papp', '<', 1),
  ('CC(C)c1nc(CN(C)C(=O)N[C@H](C(=O)N[C@@H](Cc2ccccc2)C[C@H](O)[C@H](Cc2ccccc2)NC(=O)OCc2cncs2)C(C)C)cs1', 'Papp', '>', 1000),
  ('CC1(C)CCC(CN2CCN(c3ccc(C(=O)NS(=O)(=O)c4ccc(NCC5CCOCC5)c([N+](=O)[O-])c4)c(Oc4cnc5[nH]ccc5c4)c3)CC2)=C(c2ccc(Cl)cc2)C1', 'Papp', '=', 1.5),
  ('CC(C)(C)c1ccc(C(=O)Nc2ccc3c(c2)CCCN3C(=O)c2cccs2)cc1', 'Papp', '=', 181),
  ('Cc1ccc(S(=O)(=O)Nc2cnccc2C(=O)Nc2nc(C3CCC3)cs2)cc1', 'Papp', '=', 497),
  ('O=C(Nc1ccc(F)cc1F)c1cc(-c2ccc[nH]2)n[nH]1', 'Papp', '=', 103),
  ('Cc1ccc(S(=O)(=O)Nc2cnccc2C(=O)Nc2ccc(-c3nc4ccccc4[nH]3)cc2)cc1', 'Papp', '=', 2.2),
  ('FC(F)(F)c1ccc(N2CCN(C(=S)Nc3ccccn3)CC2)cc1', 'Papp', '=', 815),
  ('Fc1ccc(Cl)cc1-c1nc(Nc2ccncc2)c2nccnc2n1', 'Papp', '>', 1000),
  ('O=C(Nc1ccc(C(=O)Nc2nccs2)cc1)c1ccc2ccccc2c1', 'Papp', '>', 1000),
  ('CCCCCCN(CCCCCC)C(=O)Cc1c(-c2ccc(F)cc2)[nH]c2ccccc12', 'Papp', '=', 11.7),
  ('Brc1ccccc1-c1nc(NCc2ccc(-c3cccnc3)cc2)c2ccccc2n1', 'Papp', '>', 1000),
  ('Cn1c2cc(S(C)=O)sc2c2cnn(Cc3cccc(N)c3)c(=O)c21 (centres undefined)', 'Papp', '=', 106),
  ('CCS(=O)(=O)N1CC(CC#N)(n2cc(-c3ncnc4[nH]ccc34)cn2)C1', 'Papp', '=', 11.1),
  ('Cc1ccc(-c2cc(C(=O)Nc3ccccn3)c3ccccc3n2)cc1', 'Papp', '>', 1000),
  ('COc1cc(/C=C(\C#N)c2nc3ccccc3[nH]2)ccc1OCc1ccc(F)cc1', 'Papp', '=', 641),
  ('Cc1cc(CNC(=O)c2ccc3c(c2)n(CC2CC2)c(=O)n3C2CCCCC2)on1', 'Papp', '=', 964),
  ('CC1=C(C(=O)Nc2nncs2)C(c2ccccc2Br)N=C(Nc2nc3ccccc3o2)N1 (centres undefined)', 'Papp', '=', 128),
  ('NC(=O)COc1ccc(C2CC(=O)Nc3n[nH]c(Nc4ccccc4)c32)cc1 (centres undefined)', 'Papp', '=', 2.8),
  ('CC[C@H]1CN2CCC3CC(OC)C(OC)CC3[C@@H]2C[C@@H]1C[C@H]1NCCC2=C1CC(OC)=C(O)C2 (some centres undefined)', 'Papp', '=', 153),
  ('Cc1ccc(S(=O)(=O)Nc2cnccc2C(=O)Nc2cccc3ccccc23)cc1', 'Papp', '=', 288),
  ('COc1cc(NS(=O)(=O)c2ccc(C)cc2)c(C(=O)Nc2nc(-c3ccccc3)cs2)cc1OC', 'Papp', '=', 325),
  ('Cc1noc(C)c1-c1cc(-c2ccc3c(c2)C(=O)NC3)cn2cncc12', 'Papp', '=', 143),
  ('Fc1cc(Nc2nc(-c3ccncc3)nc3ccccc23)ccc1C(F)(F)F', 'Papp', '=', 641),
  ('C1CCc2nc3c(nc2C1)CCCC3', 'Papp', '=', 257),
  ('Nc1nc(Nc2ccc(S(N)(=O)=O)cc2)n(C(=S)Nc2c(F)cccc2F)n1', 'Papp', '=', 6.07),
  ('Cc1cc(-c2nnc3n2CCCCC3)c(C)n1-c1ccc([N+](=O)[O-])cc1', 'Papp', '=', 20.8),
  ('CC(C)(C)OC(=O)N[C@@H](Cc1ccc(OS(=O)(=O)c2cccc3cnccc23)cc1)C(=O)N1CCCN(C(=O)OC(C)(C)C)CC1', 'Papp', '=', 818),
  ('C/C=C1/CN2CC[C@@]34c5ccccc5N(C)[C@@H]3[C@@H]2C[C@@H]1[C@H]4C(=O)OC', 'Papp', '=', 895),
  ('CCOC(=O)c1csc(NC(=O)c2ccncc2NS(=O)(=O)c2ccc(C)cc2)n1', 'Papp', '=', 114),
  ('CCc1nnc(NC(=O)c2nc(S(=O)(=O)Cc3ccc(C)cc3)ncc2Cl)s1', 'Papp', '=', 32.9),
  ('O=C(NCc1ccco1)c1nc2nc(-c3cccs3)cc(C(F)(F)F)n2n1', 'Papp', '=', 257);
